Assignment: determine reported Max. Killing (% Lysis), MNC based killing of A431 cells, E:T 80:1 for the given binders.
- tgt: NKp30 on human NK cells (human) (UniProt O14931)
- Sequence (O14931 19-201): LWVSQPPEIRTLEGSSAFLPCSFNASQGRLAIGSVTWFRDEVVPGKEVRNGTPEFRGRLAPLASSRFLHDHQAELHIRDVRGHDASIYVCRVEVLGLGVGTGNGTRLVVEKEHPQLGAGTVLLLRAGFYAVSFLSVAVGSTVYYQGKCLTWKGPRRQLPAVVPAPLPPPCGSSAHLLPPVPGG
- method-summary: cell-based or functional assay
Give bare numbers, in % Lysis.

- VHH15 SEEDbody eff- (bispecific antibody, part only; not given: silenced SEED Fc and cetuximab Fab, V domains shown, not shown: another chain or arm of the molecule; a dimerising Fc or GST; small tags and cut ends) VHH: DVQLQESGGGLVQAGGSLRLSCAVSGSTFRLNVMGWYRQAPGKLRDLVAGITADGGVTNYADSVKGRFIISRDNAKNTVYLQMNSLKPEDTAIYYCNTAPANWGSWGQGTQVTVSS: 50
- VHH7 SEEDbody eff- (bispecific antibody, part only; not given: silenced SEED Fc and cetuximab Fab, V domains shown, not shown: another chain or arm of the molecule; a dimerising Fc or GST; small tags and cut ends) VHH: DVQLQESGGGLAQPGGSLRLSCAASGFTFSSYDMGWYRQVPGKECELVAAIFSAGGSTIYADSVKGRFTISRDNAKNTVFLQMNSLKPEDTAVYYCNKAPPFTTIQPTCVMIDTQLGAWGQGTQVTVSS: 49
- VHH4 SEEDbody eff- (bispecific antibody, part only; not given: silenced SEED Fc and cetuximab Fab, V domains shown, not shown: another chain or arm of the molecule; a dimerising Fc or GST; small tags and cut ends) VHH: DVQLQESGGGLVQPGESLRLSCLVSGVTYHFYDITWFRQAPGLEREGVSCISYASGSTKFADSVKGRFTISRDNAKNAVYLQMNSLKPEDTAVYFCAMQGSGSCSDFMSADSVLSWGQGTQVTVSS: 55

Alright, here's another binder for you.
Lookup: Quick one: Max. Killing (% Lysis), MNC based killing of A431 cells, E:T 80:1 of VHH2 SEEDbody eff- (bispecific antibody, part only; not given: silenced SEED Fc and cetuximab Fab, V domains shown, not shown: another chain or arm of the molecule; a dimerising Fc or GST; small tags and cut ends) VHH: DVQLQESGGGLVQAGGSLRLSCAVSGQTWTNYHIGWFRQAPGKARESVASIEWGGRGTYATDSVKGRFTISRDNAKNTVYLQMNSLKPEDTAVYYCAAQSSSRSPLESNYDYWGQGTQVTVSS ?
Found: 51
